The reported numbers originate from PubChem BioAssay (NCI).

# Tested on: OVCAR-8 ovarian
# assay: NCI-60 one-dose screen, 48 h
# test.conditions: 10 µM unless noted
The panel holds about 83,000 compounds, 20% with a hit somewhere; the sample as a whole holds those more often. Active and inactive are the calls of the source. How the source made its calls: active means growth percent below 10; inactive means the rest.
Answer with one of the outcomes given here: active, inactive

molecule | answer.label
Cc1ccc2c(n1)C(=O)C(Cl)=C(Nc1cccc(C(F)(F)F)c1)C2=O | inactive
C/C(=N\NC(=O)Nc1ccccc1)c1nnn(-c2ccc([N+](=O)[O-])cc2)c1C | inactive
Cn1cc(-c2nn3cc(-c4ccncc4)nc3s2)c2cc(Br)ccc21 | inactive

Recorded test outcome, item O=C(O)CC1CCN(c2ccc3nnc(Cl)n3n2)CC1
inactive

Recorded test outcome, item CN(C)CCNc1ccc2ncc(C#Cc3cncc(C(=O)Nc4ccc(CN5CCN(C)CC5)c(C(F)(F)F)c4)c3)n2n1
active

Recorded test outcome, item Cc1ccccc1Nc1nc(SC(C)C)nc(-c2ccccc2)c1C#N
inactive

Recorded test outcome, item O=C(/C=C/c1ccc(Cl)c(Cl)c1)Nc1ncc(Cc2ccc(Cl)c(Cl)c2)s1
inactive

Recorded test outcome, item CCOc1cccc(/C(N)=N/C(N)=N/c2nc3ccccc3s2)c1
inactive

---

Recorded growth by entry
# Tested on: K-562 leukemia
# assay: NCI-60 one-dose screen, 48 h (100 = growth as untreated, 0 = no growth, -100 = all killed)
# test.conditions: 10 µM unless noted
Compounds without any hit were thinned out: in the full panel of roughly 83,000, 20% have a hit.
Use % as the unit, but write only the number.

item.smiles | target.of.assay | test.readout | readout.number
O=C(CSc1nnc(-c2ccc(Cl)cc2)n1-c1ccccc1)Nc1cccc(F)c1 | K-562 leukemia | growth | 48
Cc1ccc(/C(N)=N/C(N)=N/c2nc3ccccc3s2)cc1 | K-562 leukemia | growth | 82.5
CC1(C)CC[C@]2(C(=O)O)CC[C@]3(C)C(=CC[C@@H]4[C@@]5(C)CC[C@H](NOCCCN)C(C)(C)[C@@H]5CC[C@]43C)[C@@H]2C1 | K-562 leukemia | growth | 46.4

# context switch: different compound, same growth
# query: growth of entry CCOP(=O)(OCC)OC[C@]12CCC(C)(C)C[C@H]1C1=CC[C@@H]3[C@@]4(C)CC[C@H](OP(=O)(OCC)OCC)C(C)(C)[C@@H]4CC[C@@]3(C)[C@]1(C)CC2
28.9

---

# Test system: HS 578T breast
# assay: NCI-60 one-dose screen, 48 h
# test.conditions: 10 µM unless noted
The panel holds about 83,000 compounds, 20% with a hit somewhere; the sample as a whole holds those more often. Calls of active or inactive are those of the source. How the source made its calls: active means growth percent below 10; inactive means the rest.
Answer with one of the outcomes given here: active, inactive

Some solved entries appear below for comparison.
compound | target.of.assay | answer.label
O=C1[C@@H]2Cc3c([nH]c4ccccc34)[C@@H](c3ccc(Cl)cc3)N2C(=O)CN1C1CCN(Cc2c(F)cccc2F)CC1 | HS 578T breast | inactive
N#Cc1cccc(-c2cc(-c3ccc4c(c3)OCCO4)[nH]n2)c1 | HS 578T breast | inactive
CC(=O)N1N=C(c2cc3ccccc3oc2=O)CC1c1cn(-c2ccccc2)nc1-c1ccc(C)cc1 (centres undefined) | HS 578T breast | inactive
CSc1ccc(C(=NNS(=O)(=O)c2ccc(C)cc2)c2ccc(Cl)cc2)cc1 | HS 578T breast | inactive
CN1CCN(c2ccc(Nc3nc(NCCCNS(=O)(=O)c4cccc5ccccc45)c4sccc4n3)cc2)CC1 | HS 578T breast | active
C/C(=C(\c1ccc(O)cc1)c1ccc(OCCN2CCCCCC2)cc1)c1ccc(Cl)cc1 | HS 578T breast | active

Recorded test outcome, item CC(C)=CCC[C@](C)(O)[C@H]1CC[C@]2(C)[C@@H]1CC[C@@H]1[C@@]3(C)CC[C@H](N)C(C)(C)[C@@H]3CC[C@]12C
inactive
